- assay: qHTS for Inhibitors of human tyrosyl-DNA phosphodiesterase 1 (TDP1): qHTS in cells in absence of CPT; note: nearly all actives have a fitted effect of over 55% in size
- experimentalContext: DT40 Tdp1-/- hTDP1 cells, no CPT, ATP luminescence, 48 h
Among all 420,000 compounds or so, about 64,000 (15%) were called active. Inconclusive results (about 27%) are left out. Calls come from the whole dose curve; as a rule, active = well fitted inhibition curve with a large enough effect; inconclusive = small, poorly fitted or top-dose-only effect; inactive = flat fitted curve, though single readings scatter. Only a sample is shown.
Outcomes: active, inactive

{"moleculeSmiles": "CCOC(=O)c1cc2cc(OC)ccc2n1C1CCN(C)CC1", "label": "active"}
{"moleculeSmiles": "COc1ccc(-c2cn(-c3ccc(C)cc3)c(=O)n2CC(=O)Nc2ccc(OC)c(OC)c2)cc1", "label": "inactive"}
{"moleculeSmiles": "O=C(c1cccc(Cl)c1)N1CCN(Cc2ccccc2)CC1", "label": "inactive"}
{"moleculeSmiles": "C#Cc1cc(N2CCN(C(=O)c3ccoc3)CC2)n2nc(-c3cccc(Cl)c3)cc2n1", "label": "active"}
{"moleculeSmiles": "[O-][n+]1c2c(nn1-c1ccc(Cl)c(Cl)c1)-c1nonc1CC2", "label": "inactive"}
{"moleculeSmiles": "CCOC(=O)c1cc2c(ccn2C)n1CC(=O)N1CCC(C)CC1", "label": "inactive"}
{"moleculeSmiles": "O=C(c1cccc(Cl)c1)N1CCN(CCc2ccncc2)CC1", "label": "inactive"}
